Experiment: Phase separation temperature of compatibilizer / Zerol 150 alkylbenzene oil / R134a mixtures (cloud point on cooling)
Format: physicochemical
Details: near 25.0 wt % Zerol 150 : 25.0 wt % compatibilizer : 50.0 wt % R134a, cooled in one degree intervals
Procedure: The phase separation temperatures for lactone compatibilizers of the present invention when combined with Zerol® 150 alkylbenzene oil were determined. […] The glass tube was sealed at one end, and the other end was sealed to a Teflon® vacuum valve stopcock. […] The pressure was measured by a mercury manometer, F. All five valves, A, B, C, D and E were attached to the manifold via greased ground-glass joints. […]
Recorded measurements of Phase Separation Temperature, one per entry
# unit: deg C | format: bare number

CCCCCCCCC=C1CC(C)OC1=O (stereo not shown) | 4

Now examine the next entry.
Q. What value of Phase Separation Temperature has been reported for the following compound? CCCCCC[C@]1(C)CCC(=O)O1 (stereo in doubt) [5-methyl-5-hexyl-dihydro-furan-2-one]
A. −2

Attribution: patent US20050127321A1
